Sourced from paper PMC11252453

molecular target: SARS-CoV-2 PLpro (Severe acute respiratory syndrome coronavirus 2, UniProt P0DTD1); assay: cell-based
measured_parameter: EC50
Show the value, then the unit it is measured in.

Short answer on SARS-CoV-2 PLpro (Severe acute respiratory syndrome coronavirus 2, UniProt P0DTD1) for CCC(C(=O)Nc1cc(NC2CCNCC2)ccc1C)n1cc(Br)cc2nc(SCc3ccc(F)cc3)nc1-2 (stereo not shown) , EC50: 3.81 µM
